# Tested on: LXFL 529 NSCLC
# Assay Remarks: NCI tumour cell line growth inhibition, 48 h

| Compound | TGI |
| --- | --- |
| Cc1cccc(C)c1NC(=O)CCc1nnc2s/c(=C\c3ccc(N(C)C)cc3)c(=O)n12 | > 100 µM |
| CC(C)c1ccc(C2NC(=S)NC3=C2c2ccccc2C3=O)cc1 (centres undefined) | > 100 µM |
| O=C(O)[C@@H]1OCCOCCO[C@@H](C(=O)O)[C@H](C(=O)O)OCCOCCO[C@H]1C(=O)O | > 100 µM |
| C/C(=N\NC(N)=S)c1ccc(C)c(C)c1 | > 100 µM |
| c1ccc(CN2CCc3[nH]c4ccccc4c3C2)cc1 | 48.6 µM |
| N#C/C(c1nc2ccccc2[nH]1)=c1\s/c(=C(/N)O)c(=N)n1-c1ccccc1 | > 100 µM |
| O=c1c2cc(Br)cc(Br)c2nc(CCCl)n1-c1ccc(O)c([N+](=O)[O-])c1 | 30.3 µM |
| O=c1c2ccccc2[nH]c2c(O)ccc(O)c12 | 28.5 µM |
| O=[P+](O)c1ccccn1 | > 100 µM |

###

Collected TGI values appear next to each entry.
# Tested on: SF-268 CNS
# Assay Remarks: NCI tumour cell line growth inhibition, 48 h

| Compound | Test Target | TGI |
| --- | --- | --- |
| Nc1ccc(-c2cc(C(=O)Nc3nccs3)[nH]c(=S)n2)cc1 | SF-268 CNS | > 100 µM |
| Nc1c(C(=O)Nc2ccccn2)sc2nc3c(cc12)C(O)CCC3 (stereo unspecified) | SF-268 CNS | > 50 µM |
| CNCCN[C@@H]1c2cc3c(cc2[C@@H](c2cc(OC)c(O)c(OC)c2)[C@H]2C(=O)OC[C@@H]21)OCO3 | SF-268 CNS | > 25.6 µM |
| CC[C@@]1(OC(=O)C(N)CCCCN)C(=O)OCc2c1cc1n(c2=O)Cc2cc3ccccc3nc2-1 (stereo partly specified) | SF-268 CNS | 11.9 µM |
| COc1cc2oc(=O)cc(C)c2c(OC)c1O | SF-268 CNS | > 100 µM |
| COc1ccc2c3c([nH]c(=O)c2c1C(=O)O)-c1ccccc1CC3 | SF-268 CNS | > 100 µM |
| Cc1cccc(NC(=O)O/N=C(\Cl)C(C)C)c1 | SF-268 CNS | 38 µM |
| OB(O)c1ccccc1C#Cc1ccccc1B(O)O | SF-268 CNS | 46.9 µM |
| O=[N+]([O-])c1cccc(-c2nc(-c3ccc(Cl)cc3Cl)cn2-c2ccccc2)c1 | SF-268 CNS | 5.5 µM |
| C1OC1CN1CCN(CC2CO2)CC1 (stereo unspecified) | SF-268 CNS | > 100 µM |
| COc1ccc2c(c1)CC1COc3cc(OC)ccc3C1O2 (stereo unspecified) | SF-268 CNS | > 100 µM |

###

# Test system: NCI-H23 lung
# Assay Remarks: NCI tumour cell line growth inhibition, 48 h
Assay Metric: GI50

| Substance Smiles | Result |
| --- | --- |
| CC(C)(C)OC(=O)NCCCCn1c2c(c3ccccc3c1=O)C(=O)c1ccccc1-2 | 20.8 µM |
| Cc1cc(-c2nnc(/C=C/c3ccc4c(c3)OCO4)o2)n[nH]1 | 11.9 µM |
| Nc1ccccc1C#C/C=C\C#CC#C/C=C\C#Cc1ccccc1N | 5.17 µM |

###

# System: SNB-19 CNS
# Assay Remarks: NCI tumour cell line growth inhibition, 48 h

| Compound | Units Of Measure | Qualifier Operator | TGI |
| --- | --- | --- | --- |
| CCOC(=O)C1C=C2O[C@@H]3OC4(CCCCC4)O[C@@H]3C2C2C(=O)CCC(=O)[C@@]12C(=O)OC (some centres undefined) | µM | > | 100 |
| CCC1C(C)C=NN1c1nc(N)nc(C(C#N)=Nc2ccc(N(C)C)cc2)n1 (centres undefined) | µM | > | 50 |
| CCCCC(C)/C=C/C(=O)C1=C(O)/C(=C/C(=O)O)OC1=O (centres undefined) | µM | > | 100 |
| COc1cc2cc(C(=O)N3CC(CCl)c4ccc([N+](C)(C)Cc5ccc([N+](=O)[O-])cc5)cc43)[nH]c2c(OC)c1OC (centres undefined) | µM | = | 60 |
| CO/N=C(/C)c1cccc(Nc2nc3ccc(Cl)cc3c3[nH]c4ccccc4c23)c1 | µM | = | 35.6 |
| CC(=O)Nc1ccc2c3c(cc(O)c2c1)N(C(=O)CCCCC(=O)N1CC(CCl)c2c1cc(O)c1cc(NC(C)=O)ccc21)CC3CCl (centres undefined) | µM | = | 5.02 |
| CCc1c2cc(OC)c(OC)cc2cc2c3cc(OC)c(OC)cc3cc[n+]12 (tested in a mixture with another compound) | µM | = | 82.1 |
| O=C(O)c1cc2ccccc2c2c3c(ccc12)OCO3 | µM | = | 849 |
| C[N+](C)(C)CC1CCC(C[N+](C)(C)C)C1=O (centres undefined) | µM | = | 33.5 |

###

Overview of reported TGI across a group of molecules:
# Tested on: OVCAR-8 ovarian
# Assay Remarks: NCI tumour cell line growth inhibition, 48 h

| Molecule | Test Target | Units Of Measure | Qualifier Operator | TGI |
| --- | --- | --- | --- | --- |
| CCOC(=O)C1C=C2O[C@@H]3OC4(CCCCC4)O[C@@H]3C2C2C(=O)CCC(=O)[C@@]12C(=O)OC (stereo partly specified) | OVCAR-8 ovarian | µM | > | 100 |
| S=C=Nc1ccc(CSc2nc3ccccc3[nH]2)cc1 | OVCAR-8 ovarian | µM | = | 32.3 |
| COc1cc2c(cc1OC)C1c3ccccc3CCN1CCC2 (stereo unspecified) | OVCAR-8 ovarian | µM | > | 100 |
| CCCCCCCCCCCCCCCCCCNCc1ccc(Cl)cc1 | OVCAR-8 ovarian | µM | = | 16.6 |
| C=C1C(=O)O[C@H]2C1C[C@@H](O)/C(C)=C/CC[C@@]1(C)O[C@H]21 (stereo partly specified) | OVCAR-8 ovarian | µM | = | 45.1 |
| CN(CCO)Cc1ncccc1O | OVCAR-8 ovarian | µM | > | 100 |

###

# Tested on: OVCAR-3 ovarian
# Assay Remarks: NCI tumour cell line growth inhibition, 48 h
*1 amine or outer side, *2 acyl side, *3 side chain or, on linkers, in order; H or OH if unused. Where a SMILES comes first, the peptide text is derived from it. [ ]: non-standard residue; d: D form. The star is where a group is joined. ξ: configuration not given here. NMeY = CN[C@@H](Cc1ccc(O)cc1)C(=O)O; Ethylenediamine = C(CN[*:2])N[*:1]; ξNMeL = CNC(CC(C)C)C(=O)O; Cbz = O=C(OCc1ccccc1)*; Lac = C[C@H](O)C(=O)O; ξA = CC(N)C(=O)O
Measured TGI, listed per entry for reference.

| Molecule | TGI |
| --- | --- |
| O=C1c2c(O)cc(O)cc2C(C2OC(CO)C(O)C(O)C2O)c2cc(CO)cc(O)c21 (stereo not given) | > 100 µM |
| O=C1c2c(Br)sc(Br)c2[C@@H](Cl)[C@H]1Cl | 30 µM |
| O=C(/C=C/c1ccc(OCc2ccccc2)cc1)NCc1ccc(C(=O)NCCc2c[nH]c3ccccc23)cc1 | > 100 µM |
| CCc1c2cc(OC)c(OC)cc2cc2c3cc(OC)c(OC)cc3cc[n+]12 (tested in a mixture with another compound) | > 89.8 µM |
| c1cc(-c2ccc(-c3nc4ccc(C5=NCCN5)cc4s3)s2)ccc1C1=NCCN1 | 5.25 µM |
| CC(C)(C)c1cc2c(c(C(C)(C)C)c1O)CC(=O)O2 | 50.7 µM |
| COc1cccc(-c2nn(-c3ccccc3)cc2-c2ccnc(NCCCNC(=O)c3cccc(C(F)(F)F)c3)c2)c1 | 19.7 µM |
| Cc1ccc(S(=O)(=O)NC(=O)NCCc2ccccc2)cc1 | > 100 µM |
| COc1ccc(/C=C2\C[C@H]3[C@@H]4CC=C5C[C@@H](OC(C)=O)CC[C@]5(C)[C@H]4CC[C@]3(C)\C2=N\O)cc1OC | > 100 µM |
| O=C1Nc2cc(-c3cccc(O)c3)ccc2/C1=C/c1ccc[nH]1 | 5.85 µM |
| O/N=C1\CC2(N3CCOCC3)CCC1(c1ccccc1)CC2 | > 100 µM |
| O=c1cc(-c2ccccc2)[nH]c2ccc(S)cc12 | > 100 µM |
| CN(CCO)Cc1ncccc1O | > 100 µM |
| CCOC(=O)c1nc2ccccc2nc1NCc1ccc(OC)c(OC)c1 | > 100 µM |
| O=C1C[C@H](COCc2ccccc2)NC(=O)C[C@H](COCc2ccccc2)NC(=O)C[C@H](COCc2ccccc2)N1 | > 100 µM |
| COc1cccc(/C=C/c2nc3c(cnn3-c3ccccc3)c(=O)[nH]2)c1 | > 100 µM |
| O=C1NC(N2CCCC(CO)C2)=N/C1=C\c1ccccc1 (stereo not given) | > 100 µM |
| CC(C)(C)c1cc(C(=O)Nc2ccc(C(=O)NCCN)cc2)cc(C(C)(C)C)c1 | 4.97 µM |
| c1csc(-c2nccc3c2[nH]c2ccccc23)c1 | 49.4 µM |
| Clc1cc2ccccc2c2ccccc12 | > 100 µM |
| O=C1CCCC/C1=C1/SC(=Nc2ccccc2)C(=Nc2ccccc2)N1c1ccccc1 | > 100 µM |
| C/C(=N\NC(=O)C[N+](C)(C)C)c1sc(-c2cccnc2)nc1C | > 100 µM |
| CC[C@H](C)C1=C(OC(C)=O)[N@+]2([O-])Oc3ccc(-c4c(O)c(O)c(-c5ccc(OC(C)=O)cc5)c(OC(C)=O)c4OC(C)=O)cc3O[C@]2([C@@H](C)CC)C(=O)N1O | 37.5 µM |
| COc1ccc(C[C@@H](C(=O)NCCNC(=O)C(CC(C)C)N(C)C(=O)[C@@H]2CCCN2C(=O)[C@H](C)O)N(C)C(=O)[C@@H]2CCCN2C(=O)[C@H](CC(C)C)NC(=O)C(C)NC(=O)OCc2ccccc2)cc1 (stereo not given in full) (Cbz-[ξA]LP[NMeY](Me)-{Ethylenediamine-ξNMeL-Pro-Lac}) | > 100 µM |
| OB(O)c1ccccc1C#Cc1ccccc1B(O)O | 68.6 µM |
| CCOC(=O)/C(=C\NC(C)(C)C)c1nc2ccccc2[nH]1 | 35 µM |
| Cn1nc2ccc([N+](=O)[O-])cc2[n+]1[O-] | > 100 µM |
| CC1(C)CCCC2(C)C3C(O)CC2(C)C(O)C31 (stereo not given) | > 100 µM |
| CSc1nc(Nc2ccccc2Cl)c2c(N)nn(C)c2n1 | > 100 µM |
| C=C(Cl)/C(=C\Cl)CCC(Cl)C(C)C (stereo not given) | > 100 µM |
| COc1ccc(C(=O)O[C@H]2CC[C@@]3(C)[C@@H]4CC[C@H]5[C@]6(O)C[C@H](O)[C@@]7(O)[C@@H](CN8C[C@@H](C)CC[C@H]8[C@@]7(C)O)[C@]6(O)C[C@@]53OC24O)cc1OC | > 100 µM |
| CC[C@@]1(OC(=O)CN(C)C)C(=O)OCc2c1cc1n(c2=O)Cc2cc3c(N)cccc3nc2-1 | 0.218 µM |
| O=C(NCCc1ccccc1)Nc1ccc2cc3ccc(NC(=O)NCCc4ccccc4)cc3nc2c1 | 2.34 µM |
| O=C(c1ccco1)N(C(=S)N1CCN(c2ccccc2)CC1)C1CCCCC1 | > 100 µM |
| Nc1c(C(=O)Nc2ccccn2)sc2nc3c(cc12)C(O)CCC3 (stereo not given) | 4.11 µM |
